Please provide measured fAUC for the entries that follow.
experiment: Unbound AUC (0 to infinity) in Sprague-Dawley rat at 3 mg/kg,po and measured after 72 hrs by LC/MS/MS analysis; format: ADME, organism-based; details: in vivo
Numbers only, in ng·h/mL.

Use these answered entries as a reference point.
* CN1CCCC[C@H](N(c2cc(C#CC(C)(C)C)sc2C(=O)O)C(=O)[C@H]2CC[C@H](C)CC2)C1=O | 30.6
* CN1CC[C@H](N(c2cc(C#CC(C)(C)C)sc2C(=O)O)C(=O)[C@H]2CC[C@H](C)CC2)C1=O | 3.34
* CN1CC[C@@H](N(c2cc(C#CC(C)(C)C)sc2C(=O)O)C(=O)[C@H]2CC[C@H](C)CC2)C1=O | 6.64

Request: State its fAUC: `CN1CCCC[C@@H](N(c2cc(C#CC(C)(C)C)sc2C(=O)O)C(=O)[C@H]2CC[C@H](C)CC2)C1=O`
Result: 7.06

###

target: Nuclear receptor subfamily 1 group I member 2 (Homo sapiens, UniProt O75469); test: Activation of human PXR expressed in human DPX2 co-expressing luciferase reporter gene incubated for 24 hrs by luciferase assay
Sequence (O75469 whole entry): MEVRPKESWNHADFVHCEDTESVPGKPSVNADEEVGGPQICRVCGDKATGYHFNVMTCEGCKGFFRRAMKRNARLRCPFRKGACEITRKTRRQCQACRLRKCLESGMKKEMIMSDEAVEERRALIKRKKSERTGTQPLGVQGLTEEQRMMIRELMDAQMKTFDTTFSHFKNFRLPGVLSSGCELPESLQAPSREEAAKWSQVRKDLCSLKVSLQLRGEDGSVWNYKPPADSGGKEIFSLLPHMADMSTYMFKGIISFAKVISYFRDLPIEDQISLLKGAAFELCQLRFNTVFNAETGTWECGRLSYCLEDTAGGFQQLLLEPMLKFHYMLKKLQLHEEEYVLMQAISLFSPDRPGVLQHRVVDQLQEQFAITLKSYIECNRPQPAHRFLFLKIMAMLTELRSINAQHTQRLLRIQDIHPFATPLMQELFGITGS
Please provide measured pEC50 for the entries that follow.
Give bare numbers, as −log10 of the molar value.

• CN1CCC[C@@H](N(c2cc(C#CC(C)(C)C)sc2C(=O)O)C(=O)[C@H]2CC[C@H](C)CC2)C1=O = 4.69

Shift focus to the following entry.
Request: State its pEC50: `CN1CCC[C@H](N(c2cc(C#CC(C)(C)C)sc2C(=O)O)C(=O)[C@H]2CC[C@H](C)CC2)C1=O`
Result: 4.76

###

molecular target: Cytochrome P450 2C9 (Homo sapiens, UniProt P11712)
Sequence (P11712 whole entry): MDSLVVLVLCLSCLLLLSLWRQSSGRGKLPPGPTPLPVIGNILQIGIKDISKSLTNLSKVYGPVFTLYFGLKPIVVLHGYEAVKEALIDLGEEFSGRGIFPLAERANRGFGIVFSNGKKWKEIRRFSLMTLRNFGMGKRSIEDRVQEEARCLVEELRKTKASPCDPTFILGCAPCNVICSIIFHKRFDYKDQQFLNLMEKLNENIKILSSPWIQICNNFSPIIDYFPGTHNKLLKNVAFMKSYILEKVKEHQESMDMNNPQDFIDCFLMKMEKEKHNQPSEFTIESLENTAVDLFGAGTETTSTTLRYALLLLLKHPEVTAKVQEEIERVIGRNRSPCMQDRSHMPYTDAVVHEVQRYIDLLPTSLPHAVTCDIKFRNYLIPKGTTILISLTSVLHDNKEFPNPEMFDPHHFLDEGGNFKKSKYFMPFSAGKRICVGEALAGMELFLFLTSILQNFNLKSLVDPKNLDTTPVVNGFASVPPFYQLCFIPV
pIC50: −log10 of the molar value.
measured property: pIC50

Request: State its pIC50: `CN1CCCC[C@H](N(c2cc(C#CC(C)(C)C)sc2C(=O)O)C(=O)[C@H]2CC[C@H](C)CC2)C1=O`
Result: < 4.52

###

experiment: Cmax in Sprague-Dawley rat at 3 mg/kg,po and measured after 72 hrs by LC/MS/MS analysis; assay type: ADME, organism-based; parameters: time 72 hrs, dose 3 mg/kg, route po; conditions: in vivo
measured property: Cmax (ng/mL)
One number for each entry, in ng/mL.

* CN1CCCC[C@@H](N(c2cc(C#CC(C)(C)C)sc2C(=O)O)C(=O)[C@H]2CC[C@H](C)CC2)C1=O | 589
* CN1CCCC[C@H](N(c2cc(C#CC(C)(C)C)sc2C(=O)O)C(=O)[C@H]2CC[C@H](C)CC2)C1=O | 1040
* CN1CC[C@H](N(c2cc(C#CC(C)(C)C)sc2C(=O)O)C(=O)[C@H]2CC[C@H](C)CC2)C1=O | 119

Shift focus to the following entry.
Request: State its Cmax: `CN1CC[C@@H](N(c2cc(C#CC(C)(C)C)sc2C(=O)O)C(=O)[C@H]2CC[C@H](C)CC2)C1=O`
Result: 1310

###

target: PXR (Homo sapiens); assay: Activation of human PXR expressed in human DPX2 co-expressing luciferase reporter gene assessed as fold increase incubated for 24 hrs by luciferase assay relative to control; type: cell-based; conditions: DPX2 cells expressing human PXR and luciferase reporter gene, read-out: FC
measured property: fold induction at 24 h

• CN1CCC[C@H](N(c2cc(C#CC(C)(C)C)sc2C(=O)O)C(=O)[C@H]2CC[C@H](C)CC2)C1=O = 15.1

Shift focus to the following entry.
Request: State its fold induction at 24 h: `CN1CCC[C@@H](N(c2cc(C#CC(C)(C)C)sc2C(=O)O)C(=O)[C@H]2CC[C@H](C)CC2)C1=O`
Result: 7.3

###

target: PXR (Homo sapiens, UniProt O75469); experiment: Activation of human PXR expressed in human DPX2 co-expressing luciferase reporter gene assessed as maximum efficacy incubated for 24 hrs by luciferase assay relative to control; type: cell-based; conditions: DPX2 cells expressing human PXR and luciferase reporter gene
measured property: Emax at 24 h (%)
Answers are plain numbers, in %.

• CN1CCC[C@@H](N(c2cc(C#CC(C)(C)C)sc2C(=O)O)C(=O)[C@H]2CC[C@H](C)CC2)C1=O = 28
• CN1CCCC[C@H](N(c2cc(C#CC(C)(C)C)sc2C(=O)O)C(=O)[C@H]2CC[C@H](C)CC2)C1=O = 10

Dear reader, for each entry below, please note its Emax at 24 h.
1. CN1CCC[C@H](N(c2cc(C#CC(C)(C)C)sc2C(=O)O)C(=O)[C@H]2CC[C@H](C)CC2)C1=O
2. CN1CCCC[C@@H](N(c2cc(C#CC(C)(C)C)sc2C(=O)O)C(=O)[C@H]2CC[C@H](C)CC2)C1=O

Result:
1: 63; 2: 16

###

experiment: Protein binding in human plasma at 1 uM incubated for 6 hrs by LC-MS/MS based rapid equilibrium dialysis method; assay type: ADME, cell-free; conditions: read-out: PPB
measured property: fraction unbound at 6 h, 1 µM

Request: State its fraction unbound at 6 h, 1 µM: `CN1CCC[C@H](N(c2cc(C#CC(C)(C)C)sc2C(=O)O)C(=O)[C@H]2CC[C@H](C)CC2)C1=O`
Result: 0.01

###

test: Cmax in Sprague-Dawley rat at 1.5 mg/kg,po and measured after 72 hrs by LC/MS/MS analysis; assay type: ADME, organism-based; design: dose 1.5 mg/kg, time 72 hrs, route po; details: in vivo
Please provide measured Cmax for the entries that follow.

Dear reader, for each entry below, please note its Cmax.
1. CN1CCC[C@@H](N(c2cc(C#CC(C)(C)C)sc2C(=O)O)C(=O)[C@H]2CC[C@H](C)CC2)C1=O
2. CN1CCC[C@H](N(c2cc(C#CC(C)(C)C)sc2C(=O)O)C(=O)[C@H]2CC[C@H](C)CC2)C1=O

Result:
["2540 ng/mL", "751 ng/mL"]

###

test: Half life in Sprague-Dawley rat at 0.5 mg/kg,iv and measured after 72 hrs by LC/MS/MS analysis; assay type: ADME, organism-based; conditions: in vivo
measured property: half-life (h)
Give bare numbers, in h.

* CN1CCC[C@H](N(c2cc(C#CC(C)(C)C)sc2C(=O)O)C(=O)[C@H]2CC[C@H](C)CC2)C1=O | 6.68

Shift focus to the following entry.
Request: State its half-life: `CN1CCC[C@@H](N(c2cc(C#CC(C)(C)C)sc2C(=O)O)C(=O)[C@H]2CC[C@H](C)CC2)C1=O`
Result: 5.57

###

Please provide measured fAUC for the entries that follow.
assay: Unbound AUC (0 to infinity) in Sprague-Dawley rat at 1 mg/kg,iv and measured after 72 hrs by LC/MS/MS analysis; type: ADME, organism-based; details: in vivo
One number for each entry, in ng·h/mL.

Use these answered entries as a reference point.
• CN1CC[C@@H](N(c2cc(C#CC(C)(C)C)sc2C(=O)O)C(=O)[C@H]2CC[C@H](C)CC2)C1=O = 3.48
• CN1CCCC[C@@H](N(c2cc(C#CC(C)(C)C)sc2C(=O)O)C(=O)[C@H]2CC[C@H](C)CC2)C1=O = 2.26

Dear reader, for each entry below, please note its fAUC.
1. CN1CCCC[C@H](N(c2cc(C#CC(C)(C)C)sc2C(=O)O)C(=O)[C@H]2CC[C@H](C)CC2)C1=O
2. CN1CC[C@H](N(c2cc(C#CC(C)(C)C)sc2C(=O)O)C(=O)[C@H]2CC[C@H](C)CC2)C1=O

Result:
1. 11.8
2. 4.35

###

test: Half life in Sprague-Dawley rat at 1.5 mg/kg,po and measured after 72 hrs by LC/MS/MS analysis; assay type: ADME, organism-based; conditions: in vivo
measured property: half-life (h)
Answers are plain numbers, in h.

• CN1CCC[C@H](N(c2cc(C#CC(C)(C)C)sc2C(=O)O)C(=O)[C@H]2CC[C@H](C)CC2)C1=O = 4.8

Shift focus to the following entry.
Request: State its half-life: `CN1CCC[C@@H](N(c2cc(C#CC(C)(C)C)sc2C(=O)O)C(=O)[C@H]2CC[C@H](C)CC2)C1=O`
Result: 6.13

###

Please provide measured Vd for the entries that follow.
test: Volume of distribution at steady state in Sprague-Dawley rat at 1 mg/kg,iv and measured after 72 hrs by LC/MS/MS analysis; format: ADME, organism-based; settings: in vivo, read-out: Vdss
Give bare numbers, in L/kg.

• CN1CCCC[C@@H](N(c2cc(C#CC(C)(C)C)sc2C(=O)O)C(=O)[C@H]2CC[C@H](C)CC2)C1=O = 1.05
• CN1CCCC[C@H](N(c2cc(C#CC(C)(C)C)sc2C(=O)O)C(=O)[C@H]2CC[C@H](C)CC2)C1=O = 1.95
• CN1CC[C@H](N(c2cc(C#CC(C)(C)C)sc2C(=O)O)C(=O)[C@H]2CC[C@H](C)CC2)C1=O = 6.04

Shift focus to the following entry.
Request: State its Vd: `CN1CC[C@@H](N(c2cc(C#CC(C)(C)C)sc2C(=O)O)C(=O)[C@H]2CC[C@H](C)CC2)C1=O`
Result: 1.93
